Reported Ki for target or system KAT7 (Homo sapiens, UniProt O95251), by entry.
Note: unit nM is implicit; provide only the numeric part.

Kindly note the recorded Ki for COc1ccccc1S(=O)(=O)Nc1noc2cc(Cn3cccn3)cc(OC)c12 [PF-8144, reference compound] , which is 85.7

response.value for `COc1ccc2c(c1S(=O)(=O)Nc1noc3cc(Cn4cccn4)c(F)c(OC)c13)OCCCO2` (field: Ki) = 174

The compound listed as `COc1ccc2c(c1S(=O)(=O)Nc1noc3cc(Cn4cccn4)c(F)c(OC)c13)OCCCN2C` has a reported Ki of 493

---

- System name: KAT7 (Homo sapiens)
- Construct: purchased ACTIVE MOTIF 31889
- Sequence (O95251 whole entry): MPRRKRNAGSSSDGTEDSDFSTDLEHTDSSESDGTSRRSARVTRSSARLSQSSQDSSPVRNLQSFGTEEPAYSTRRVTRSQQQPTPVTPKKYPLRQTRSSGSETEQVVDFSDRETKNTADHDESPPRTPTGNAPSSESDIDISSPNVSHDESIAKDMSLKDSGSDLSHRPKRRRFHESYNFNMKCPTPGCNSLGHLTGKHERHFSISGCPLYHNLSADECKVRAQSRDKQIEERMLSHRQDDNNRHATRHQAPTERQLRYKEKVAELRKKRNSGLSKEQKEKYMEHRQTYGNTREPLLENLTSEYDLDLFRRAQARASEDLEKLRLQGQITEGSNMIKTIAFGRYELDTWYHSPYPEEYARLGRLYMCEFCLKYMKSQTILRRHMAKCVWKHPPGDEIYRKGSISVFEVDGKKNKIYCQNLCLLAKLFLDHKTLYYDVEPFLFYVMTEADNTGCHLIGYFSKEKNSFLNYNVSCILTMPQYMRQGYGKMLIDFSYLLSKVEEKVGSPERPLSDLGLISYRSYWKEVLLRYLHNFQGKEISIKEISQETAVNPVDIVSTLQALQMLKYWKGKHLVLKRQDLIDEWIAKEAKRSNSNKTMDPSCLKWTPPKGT
- Experiment notes: Inhibition of human KAT enzymes, radioisotope method: KAT7
- Format: biochemical
- Conditions used: selectivity, ratio of Ki
- Description: Test Example 2: Selective Inhibitory Effects of Test Compounds on Human KAT6 Enzymes (Radioisotope Method) • 1. KAT6A (ACTIVE MOTIF, Cat. No. 81223) • 2. KAT5 (BPS, Cat. No. 79422) • 3. KAT7 (ACTIVE MOTIF, Cat. No. 31889) • 4. KAT6B (ACTIVE MOTIF, Cat. No. 81224) • 5. […] • 1. […] The plates were incubated at room temperature for at least 60 min and then • 8. read using MicroBeta2. Raw data were obtained in EXCEL, and the inhibition rates were calculated: […]
Please note: KAT7/ KAT6B exactly at 60 is not satisfied. Only values below 60 get satisfied.

For `COc1ccc2c(c1S(=O)(=O)Nc1noc3cc(Cn4cccn4)c(F)c(OC)c13)OCC=C2` , is the recorded KAT7/ KAT6B below the cut-off of 60?
satisfied

State whether 60 exceeds KAT7/ KAT6B recorded for `COc1ccc2c(c1S(=O)(=O)Nc1noc3cc(Cn4cccn4)c(F)c(OC)c13)OCCN2S(C)(=O)=O` .
not satisfied

Is 60 strictly greater than the molecule's reported KAT7/ KAT6B? molecule: `COc1ccc2c(c1S(=O)(=O)Nc1noc3cc(Cn4cccn4)c(F)c(OC)c13)OCCO2`
satisfied

In the record for COc1ccccc1S(=O)(=O)Nc1noc2cc(Cn3cccn3)cc(OC)c12 [PF-8144, reference compound] , is KAT7/ KAT6B less than 60?
satisfied

Does `COc1ccc2c(c1S(=O)(=O)Nc1noc3cc(Cn4cccn4)c(F)c(OC)c13)OCCCN2C` have KAT7/ KAT6B strictly under 60?
not satisfied

Identify whether the molecule `COc1ccc2c(c1S(=O)(=O)Nc1noc3cc(Cn4cccn4)c(F)c(OC)c13)OCCN2C(C)=O` records KAT7/ KAT6B below 60.
satisfied

hey, is KAT7/ KAT6B for `COc1ccc2c(c1S(=O)(=O)Nc1noc3cc(Cn4cccn4)c(F)c(OC)c13)OCCCO2` lower than 60 or not?
not satisfied

---

- Experiment notes: Pharmacokinetics in SD (Sprague Dawley) rats
- Type: in vivo
- Conditions used: rat, plasma, iv, female SD rats, i.v. 1 mg/kg, read-out: T1/2 (half-life) (converted)
- Experimental: Test Example 3: Determination of Pharmacokinetic Data of Compounds in SD (Sprague Dawley) Rats The pharmacokinetic characteristics of some of the compounds of the present disclosure were evaluated by a pharmacokinetic experiment in SD rats. Female SD rats aged 6-8 weeks from Shanghai Jihui Laboratory Animal Care Co., Ltd. were selected. […] The concentration of the corresponding test compound in the SD rat plasma was determined using UPLC-MS/MS.
Give half-life for every item shown.
Reply with just the number (in h).

For `COc1ccc2c(c1S(=O)(=O)Nc1noc3cc(Cn4cccn4)c(F)c(OC)c13)OCCC2=O` the compound record lists half-life as 3.79

Please fill in: half-life reported for `COc1ccc2c(c1S(=O)(=O)Nc1noc3cc(Cn4cccn4)c(F)c(OC)c13)OCCCN2C` = 14.3

Entry `COc1ccc2c(c1S(=O)(=O)Nc1noc3cc(Cn4cccn4)c(F)c(OC)c13)OCCCO2` , half-life reported as 17.2

Please fill in: half-life reported for `COc1ccc2c(c1S(=O)(=O)Nc1noc3cc(Cn4cccn4)c(F)c(OC)c13)OCCO2` = 5.87

half-life reading for `COc1ccc2c(c1S(=O)(=O)Nc1noc3cc(Cn4cccn4)c(F)c(OC)c13)OCCC2(F)F` : 2.83

// sample `COc1ccc2c(c1S(=O)(=O)Nc1noc3cc(Cn4cccn4)c(F)c(OC)c13)OCC=C2` , its half-life was 8.88

Input `COc1ccc2c(c1S(=O)(=O)Nc1noc3cc(Cn4cccn4)c(F)c(OC)c13)OCCN2C` . Output half-life: 8.57

Recorded half-life (compound COc1ccccc1S(=O)(=O)Nc1noc2cc(Cn3cccn3)cc(OC)c12 [PF-8144, reference compound] ): 3.16
